Entry source: ChEMBL document CHEMBL3352136

- TARGET_SYSTEM: Hepatitis C virus serine protease, NS3/NS4A (Hepatitis C virus, UniProt A3EZI9+D2K2A8, D168V)
- ASSAY_TEXT: Inhibition of HCV NS3/4A protease D168V mutant using Ac-DED(Edans)EEAbu-psi[COO]ASK(Dabcyl)-NH2 as substrate by FRET assay
- Set-up: species or system Hepacivirus hominis
ENDPOINT_LABEL: Ki (nM)

INSERT INTO results (compound, endpoint_label, result_value) VALUES
  ('COc1cc(Oc2ccc(C3NC(=O)[C@H](NC(=O)OC(C)(C)C)CCCCC/C=C/CCCS(=O)(=O)NC(=O)c4ccccc4NC3=O)cc2)nc(-c2ccccc2)n1 (single isomer, unassigned; diastereomer 2)', 'Ki', 600);

###

- ASSAY_TEXT: Solubility of the compound in PBS after 2 hrs by LC-MS/MS analysis
- Assay type: physicochemical
Each entry below lists one item and its recorded solubility at 2 h value.
ENDPOINT_LABEL: solubility at 2 h (µM)

INSERT INTO results (compound, result_value) VALUES
  ('C=CCCCS(=O)(=O)NC(=O)c1ccccc1NC(=O)[C@@H](NC(=O)[C@@H](NC(=O)OC(C)(C)C)C(C)(C)C)c1ccc(Oc2cc(OC)nc(-c3ccccc3)n2)cc1', 33),
  ('C=CCCCS(=O)(=O)NC(=O)c1ccccc1NC(=O)[C@@H](NC(=O)[C@@H](NC(=O)OC(C)(C)C)C(C)(C)C)c1ccc(Oc2cc(OC)nc(-c3ccccc3)n2)c(C=C)c1', 66),
  ('COc1cc(Oc2ccc(C3NC(=O)[C@H](NC(=O)OC(C)(C)C)CCCCC/C=C/CCCS(=O)(=O)NC(=O)c4ccccc4NC3=O)cc2)nc(-c2ccccc2)n1 (stereo in doubt; 29L)', 51),
  ('C=CCCCS(=O)(=O)NC(=O)c1ccccc1NC(=O)[C@@H](NC(=O)OC(C)(C)C)c1ccc(Oc2cc(OC)nc(-c3ccccc3)n2)cc1', 93),
  ('C=CCCCCC[C@H](NC(=O)OC(C)(C)C)C(=O)N[C@H](C(=O)Nc1ccccc1C(=O)NS(=O)(=O)CCCC=C)c1ccc(Oc2cc(OC)nc(-c3ccccc3)n2)cc1', 91),
  ('C=CCCCS(=O)(=O)NC(=O)c1ccccc1NC(=O)[C@@H](NC(=O)OC(C)(C)C)c1ccc(Oc2cc(OC)nc(-c3ccccc3)n2)c(C=C)c1', 101);

###

- System: Hepatitis C virus
- ASSAY_TEXT: Antiviral activity against HCV genotype 1a
- Type: functional, Hepacivirus hominis
- ASSAY_SETUP: subtype 1a
ENDPOINT_LABEL: EC50

INSERT INTO assay_data (molecule, result_value) VALUES
  ('COc1ccc2c(O[C@@H]3C[C@H]4C(=O)N[C@]5(C(=O)NS(=O)(=O)C6CC6)C[C@H]5/C=C\CCCCN(C)C(=O)[C@@H]4C3)cc(-c3nc(C(C)C)cs3)nc2c1C', '7.8 nM'),
  ('CC[C@@H]1C[C@]1(NC(=O)[C@@H]1C[C@@H]2CN1C(=O)[C@H](C(C)(C)C)NC(=O)OCC(C)(C)CCCCc1cccc3c1CN(C3)C(=O)O2)C(=O)NS(=O)(=O)C1CC1', '5 nM'),
  ('CCC[C@H](NC(=O)C1[C@H]2CCC[C@H]2CN1C(=O)[C@@H](NC(=O)[C@@H](NC(=O)c1cnccn1)C1CCCCC1)C(C)(C)C)C(=O)C(=O)NC1CC1 (stereo partly drawn)', '350 nM');

###

- ASSAY_TEXT: Apparent permeability from apical to basolateral side in human Caco2 cells
- Format: ADME, cell-based
- ASSAY_SETUP: Caco-2
Catalogue of molecules with associated Papp
ENDPOINT_LABEL: Papp (×10⁻⁶ cm/s)

INSERT INTO results (molecule, result_value) VALUES
  ('COc1cc(Oc2ccc(C3NC(=O)[C@H](NC(=O)OC(C)(C)C)CCCCC/C=C/CCCS(=O)(=O)NC(=O)c4ccccc4NC3=O)cc2)nc(-c2ccccc2)n1 (single isomer, unassigned; diastereomer 2)', 0.15),
  ('COc1cc(Oc2ccc(C3NC(=O)[C@H](NC(=O)OC(C)(C)C)CCCCC/C=C/CCCS(=O)(=O)NC(=O)c4ccccc4NC3=O)cc2)nc(-c2ccccc2)n1 (stereo in doubt; 29L)', 0.35);

###

- ASSAY_TEXT: Apparent permeability from apical to basolateral side in human Caco2 cells
- Assay type: ADME, cell-based
- ASSAY_SETUP: Caco-2
ENDPOINT_LABEL: Papp A→B

INSERT INTO measurements (sample_smiles, result_value) VALUES
  ('C=CCCCS(=O)(=O)NC(=O)c1ccccc1NC(=O)[C@@H](NC(=O)[C@@H](NC(=O)OC(C)(C)C)C(C)(C)C)c1ccc(Oc2cc(OC)nc(-c3ccccc3)n2)cc1', '0.22 ×10⁻⁶ cm/s'),
  ('C=CCCCCC[C@H](NC(=O)OC(C)(C)C)C(=O)N[C@H](C(=O)Nc1ccccc1C(=O)NS(=O)(=O)CCCC=C)c1ccc(Oc2cc(OC)nc(-c3ccccc3)n2)cc1', '0.22 ×10⁻⁶ cm/s'),
  ('C=CCCCS(=O)(=O)NC(=O)c1ccccc1NC(=O)[C@@H](NC(=O)[C@@H](NC(=O)OC(C)(C)C)C(C)(C)C)c1ccc(Oc2cc(OC)nc(-c3ccccc3)n2)c(C=C)c1', '1.7 ×10⁻⁶ cm/s'),
  ('C=CCCCS(=O)(=O)NC(=O)c1ccccc1NC(=O)[C@@H](NC(=O)OC(C)(C)C)c1ccc(Oc2cc(OC)nc(-c3ccccc3)n2)c(C=C)c1', '1 ×10⁻⁶ cm/s'),
  ('C=CCCCS(=O)(=O)NC(=O)c1ccccc1NC(=O)[C@@H](NC(=O)OC(C)(C)C)c1ccc(Oc2cc(OC)nc(-c3ccccc3)n2)cc1', '4 ×10⁻⁶ cm/s');

###

Consider the following molecules and their measured pKi readings.
- TARGET_SYSTEM: Hepatitis C virus serine protease, NS3/NS4A (Hepatitis C virus, UniProt A3EZI9+D2K2A8)
- ASSAY_TEXT: Inhibition of HCV genotype 1a NS3/4A protease using Ac-DED(Edans)EEAbu-psi[COO]ASK(Dabcyl)-NH2 as substrate by FRET assay
pKi: −log10 of the molar value.
ENDPOINT_LABEL: pKi

INSERT INTO results (molecule, result_value) VALUES
  ('C=CCCCS(=O)(=O)NC(=O)[C@H](CCC)NC(=O)[C@@H]1C[C@@H](Oc2cc(-c3ccccc3)nc3cc(OC)ccc23)CN1C(=O)[C@@H](NC(=O)OC(C)(C)C)C(C)(C)C', 6.52),
  ('COc1ccc2c(Oc3ccc([C@H](NC(=O)[C@@H](NC(=O)OC(C)(C)C)C(C)(C)C)C(=O)Nc4ccccc4C(=O)NS(=O)(=O)c4ccccc4)cc3)cc(-c3ccccc3)nc2c1', 6.51),
  ('C=CCCCS(=O)(=O)NC(=O)c1ccccc1NC(=O)[C@@H](NC(=O)[C@@H](NC(=O)OC(C)(C)C)C(C)(C)C)c1ccc(Oc2cc(OC)nc(-c3ccccc3)n2)cc1', 7.02),
  ('COc1cc(Oc2ccc3cc2/C=C/CCS(=O)(=O)NC(=O)c2ccccc2NC(=O)[C@H]3NC(=O)OC(C)(C)C)nc(-c2ccccc2)n1', 5.89),
  ('C=CCCCS(=O)(=O)NC(=O)[C@H](CCC)NC(=O)[C@@H](NC(=O)[C@@H](NC(=O)OC(C)(C)C)C(C)(C)C)c1ccc(Oc2cc(-c3ccccc3)nc3cc(OC)ccc23)c(C=C)c1', 7.20),
  ('C=CCCCCC[C@H](NC(=O)OC(C)(C)C)C(=O)N[C@H](C(=O)Nc1ccccc1C(=O)NS(=O)(=O)CCCC=C)c1ccc(Oc2cc(OC)nc(-c3ccccc3)n2)cc1', 6.64),
  ('C=CCCCS(=O)(=O)NC(=O)c1ccccc1NC(=O)[C@@H](NC(=O)[C@@H](NC(=O)OC(C)(C)C)C(C)(C)C)c1ccc(Oc2cc(OC)nc(-c3ccccc3)n2)c(C=C)c1', 7.59),
  ('C=CCCCS(=O)(=O)NC(=O)c1ccccc1NC(=O)[C@@H](NC(=O)OC(C)(C)C)c1ccc(Oc2cc(C=C)nc(-c3ccccc3)n2)cc1', 6.66),
  ('C=CCCCS(=O)(=O)NC(=O)c1ccccc1NC(=O)[C@H](NC(=O)[C@@H](NC(=O)OC(C)(C)C)C(C)(C)C)c1ccc(Oc2cc(OC)nc(-c3ccccc3)n2)c(C=C)c1', 7.48),
  ('C=CCCS(=O)(=O)NC(=O)c1ccccc1NC(=O)[C@@H](NC(=O)OC(C)(C)C)c1ccc(Oc2cc(OC)nc(-c3ccccc3)n2)c(C=C)c1', 6.43),
  ('CC(C)(C)OC(=O)N[C@H](C(=O)N[C@@H]1C(=O)Nc2ccccc2C(=O)NS(=O)(=O)CCC/C=C/c2cc(nc(-c3ccccc3)n2)Oc2ccc1cc2)C(C)(C)C', 6.18),
  ('COc1cc(Oc2ccc(C3NC(=O)[C@H](NC(=O)OC(C)(C)C)CCCCC/C=C/CCCS(=O)(=O)NC(=O)c4ccccc4NC3=O)cc2)nc(-c2ccccc2)n1 (single isomer, unassigned; diastereomer 2)', 7.10),
  ('C=CCCCS(=O)(=O)NC(=O)c1ccccc1NC(=O)[C@@H](NC(=O)[C@@H](NC(=O)OCCC=C)C(C)(C)C)c1ccc(Oc2cc(C=C)nc(-c3ccccc3)n2)cc1', 6.96),
  ('CCC[C@@H]1NC(=O)[C@@H](NC(=O)[C@@H](NC(=O)OC(C)(C)C)C(C)(C)C)c2ccc(cc2)Oc2cc(nc(-c3ccccc3)n2)/C=C/CCCS(=O)(=O)NC1=O', 5.62),
  ('C=CCCCS(=O)(=O)NC(=O)c1ccccc1NC(=O)[C@H]1NC(=O)[C@H](C(C)(C)C)NC(=O)OCC/C=C/c2cc(nc(-c3ccccc3)n2)Oc2ccc1cc2', 6.41),
  ('COc1cc(Oc2ccc3cc2/C=C/CCS(=O)(=O)NC(=O)c2ccccc2NC(=O)[C@H]3NC(=O)[C@@H](NC(=O)OC(C)(C)C)C(C)(C)C)nc(-c2ccccc2)n1', 6.20),
  ('COc1cc(Oc2ccc(C3NC(=O)[C@H](NC(=O)OC(C)(C)C)CCCCCCCCCS(=O)(=O)NC(=O)c4ccccc4NC3=O)cc2)nc(-c2ccccc2)n1 (some centres undefined)', 6.89),
  ('C=CCCCS(=O)(=O)NC(=O)[C@H](CCC)NC(=O)[C@H]1NC(=O)[C@H](C(C)(C)C)NC(=O)OCC/C=C/c2cc(nc(-c3ccccc3)n2)Oc2ccc1cc2', 5.80),
  ('COc1ccc2c(O[C@@H]3C[C@H]4C(=O)N[C@]5(C(=O)NS(=O)(=O)C6CC6)C[C@H]5/C=C\CCCCN(C)C(=O)[C@@H]4C3)cc(-c3nc(C(C)C)cs3)nc2c1C', 9.44),
  ('COc1cc(Oc2ccc(C3NC(=O)[C@H](NC(=O)OC(C)(C)C)CCCCCCCCCCS(=O)(=O)NC(=O)c4ccccc4NC3=O)cc2)nc(-c2ccccc2)n1 (single isomer, unassigned; diastereomer 2)', 6.96),
  ('C=CCCCS(=O)(=O)NC(=O)c1ccccc1NC(=O)[C@@H](NC(=O)OC(C)(C)C)c1ccc(Oc2cc(OC)nc(-c3ccccc3)n2)cc1', 6.22),
  ('COc1ccc2c(O[C@@H]3C[C@H]4C(=O)N[C@]5(C(=O)O)C[C@H]5/C=C\CCCCC[C@H](NC(=O)OC5CCCC5)C(=O)N4C3)cc(-c3csc(NC(C)C)n3)nc2c1', 9.52),
  ('COc1cc(Oc2ccc(C3NC(=O)[C@H](NC(=O)OC(C)(C)C)CCCCC/C=C/CCS(=O)(=O)NC(=O)c4ccccc4NC3=O)cc2)nc(-c2ccccc2)n1 (some centres undefined)', 6.66),
  ('CC(C)(C)NC(=O)N[C@H](C(=O)N1C[C@H]2[C@@H]([C@H]1C(=O)NC(CC1CCC1)C(=O)C(N)=O)C2(C)C)C(C)(C)C (some centres undefined)', 7.85);
